experimental.system: OTU domain-containing protein 3 (Homo sapiens) (UniProt Q5T2D3)
Sequence (Q5T2D3 whole entry, looked up, the tested form may be a part): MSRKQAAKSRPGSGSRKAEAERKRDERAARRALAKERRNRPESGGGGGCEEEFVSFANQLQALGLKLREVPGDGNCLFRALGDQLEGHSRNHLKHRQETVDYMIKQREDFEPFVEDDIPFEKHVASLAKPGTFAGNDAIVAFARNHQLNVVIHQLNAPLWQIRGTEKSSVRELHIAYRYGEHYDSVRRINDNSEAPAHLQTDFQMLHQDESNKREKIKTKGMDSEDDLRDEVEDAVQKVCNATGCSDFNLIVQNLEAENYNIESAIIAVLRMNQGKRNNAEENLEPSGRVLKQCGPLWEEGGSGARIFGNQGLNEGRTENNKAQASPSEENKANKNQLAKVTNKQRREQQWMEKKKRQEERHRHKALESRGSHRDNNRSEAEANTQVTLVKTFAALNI
assay.summary: Validation of screening hits, potency titration, in vitro enzymatic, OTU domain-containing protein 3 DUB inhibitors (AID 1645868)
condition.description: purified OTUD3, ubiquitin-rhodamine cleavage fluorescence, 2 h
Calls of active or inactive are those of the source.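 Rule for the calls: active = maximal percent inhibition of the deubiquitinase OTUD3 of at least 30% across the tested doses; inactive = the rest.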
Choose one outcome from this list and give only that: active, inactive

Known results for compounds:
compound	experimental.system	assigned.label
CC(C)(C)C(=O)C1C2C(=O)N(Cc3ccccc3)C(=O)C2C2c3ccccc3C=CN12 (centres undefined)	OTU domain-containing protein 3 (Homo sapiens) (UniProt Q5T2D3)	inactive
CCc1nc(N2CCCC2=O)sc1C(=O)Nc1cccc(C(C)=O)c1	OTU domain-containing protein 3 (Homo sapiens) (UniProt Q5T2D3)	inactive
O=C(Cn1c(=O)nc(-c2ccccc2)c2ccccc21)NCc1ccc2c(c1)OCO2	OTU domain-containing protein 3 (Homo sapiens) (UniProt Q5T2D3)	active
CO[C@H]1/C=C/OC2(C)Oc3c(C)c(O)c4c(c3C2=O)C2(C=C(NC(=O)/C(C)=C\C=C\[C@H](C)[C@H](O)[C@@H](C)[C@@H](O)[C@@H](C)[C@H](OC(C)=O)C1C)C4=O)OCC(=O)O2 (some centres undefined)	OTU domain-containing protein 3 (Homo sapiens) (UniProt Q5T2D3)	inactive
Cc1ccc2cccc(OCc3nnc(SCC(=O)c4ccc(Cl)cc4)n3C)c2n1	OTU domain-containing protein 3 (Homo sapiens) (UniProt Q5T2D3)	active
Cc1nc2sc(C(=O)Nc3ccccc3Br)c(N)c2c(C)c1C	OTU domain-containing protein 3 (Homo sapiens) (UniProt Q5T2D3)	active
CCN(CC)c1nc(F)c2c(c1F)S(=O)(=O)CCN2Cc1ccccc1	OTU domain-containing protein 3 (Homo sapiens) (UniProt Q5T2D3)	inactive
COc1cc(NC(=O)c2cc(CN3CCOCC3)on2)cc(OC)c1	OTU domain-containing protein 3 (Homo sapiens) (UniProt Q5T2D3)	inactive

Can you look up the reported call for Cc1cc(C)c2cc(CN(CCc3ccccc3)C(=O)Nc3ccccc3)c(=O)[nH]c2c1 for me?
inactive
